Assignment: determine reported MIC for the given compounds.
System: N. gonorrhoeae WHO Z
experiment notes: Liquid broth MIC in Fastidious broth
condition description: Neisseria gonorrhoeae, read-out: Minimum Inhibitory Concentration (MIC), N. gonorrhoeae WHO Z

Use the examples below as a reference point.
compound | assay system | MIC
O=C(NCCN1CCN(C(=O)NC(C(=O)N[C@H]2Cc3ccc(F)c(C(=O)O)c3OB2O)c2cc(F)c(O)c(O)c2Cl)C(=O)C1=O)c1ccc(O)cc1 (stereo partly drawn) | N. gonorrhoeae WHO Z | 16 to 32 µg/mL
CS(=O)(=O)N1CCC[C@H]1C(=O)N[C@H](C(=O)N[C@H]1Cc2cccc(C(=O)O)c2OB1O)c1ccc(P(=O)(O)O)cc1 | N. gonorrhoeae WHO Z | 4 to 8 µg/mL
CS(=O)(=O)N1CCN(C(=O)NC(C(=O)N[C@H]2Cc3cccc(C(=O)O)c3OB2O)c2ccc(P(=O)(O)O)c(Cl)c2)C1=O (stereo partly drawn) | N. gonorrhoeae WHO Z | < 1 µg/mL
Cn1cccc(C(=O)N[C@@H](C(=O)N[C@H]2Cc3cccc(C(=O)O)c3OB2O)c2ccc(P(=O)(O)O)cc2)c1=O (single isomer, unassigned) | N. gonorrhoeae WHO Z | 1 to 2 µg/mL
CCN1CCN(C(=O)N[C@@H](C(=O)N[C@H]2Cc3cccc(C(=O)O)c3OB2O)c2ccc(P(=O)(O)O)c(F)c2)C(=O)C1=O (single isomer, unassigned) | N. gonorrhoeae WHO Z | < 1 µg/mL

Can you give me MIC for all of these, one by one?
1. CS(=O)(=O)N1CCN(C(=O)NC(C(=O)N[C@H]2Cc3cccc(C(=O)O)c3OB2O)c2ccc(P(=O)(O)O)c(O)c2)C1=O (stereo partly drawn)
2. CCN1CCN(C(=O)NC(C(=O)N[C@H]2Cc3cccc(C(=O)O)c3OB2O)c2ccc(P(=O)(O)O)c(O)c2)C(=O)C1=O (stereo partly drawn)
3. O=C(O)c1cccc2c1OB(O)[C@@H](NC(=O)C(NC(=O)c1ncccc1Cl)c1ccc(P(=O)(O)O)cc1)C2 (stereo partly drawn)

< 1 µg/mL
< 1 µg/mL
16 to 32 µg/mL

###

Assignment: determine reported EC50 for the given compounds.
assay system: A. baumannii PBP1a (Acinetobacter baumannii, UniProt A0ABX6CK30)
Sequence (A0ABX6CK30 1-851): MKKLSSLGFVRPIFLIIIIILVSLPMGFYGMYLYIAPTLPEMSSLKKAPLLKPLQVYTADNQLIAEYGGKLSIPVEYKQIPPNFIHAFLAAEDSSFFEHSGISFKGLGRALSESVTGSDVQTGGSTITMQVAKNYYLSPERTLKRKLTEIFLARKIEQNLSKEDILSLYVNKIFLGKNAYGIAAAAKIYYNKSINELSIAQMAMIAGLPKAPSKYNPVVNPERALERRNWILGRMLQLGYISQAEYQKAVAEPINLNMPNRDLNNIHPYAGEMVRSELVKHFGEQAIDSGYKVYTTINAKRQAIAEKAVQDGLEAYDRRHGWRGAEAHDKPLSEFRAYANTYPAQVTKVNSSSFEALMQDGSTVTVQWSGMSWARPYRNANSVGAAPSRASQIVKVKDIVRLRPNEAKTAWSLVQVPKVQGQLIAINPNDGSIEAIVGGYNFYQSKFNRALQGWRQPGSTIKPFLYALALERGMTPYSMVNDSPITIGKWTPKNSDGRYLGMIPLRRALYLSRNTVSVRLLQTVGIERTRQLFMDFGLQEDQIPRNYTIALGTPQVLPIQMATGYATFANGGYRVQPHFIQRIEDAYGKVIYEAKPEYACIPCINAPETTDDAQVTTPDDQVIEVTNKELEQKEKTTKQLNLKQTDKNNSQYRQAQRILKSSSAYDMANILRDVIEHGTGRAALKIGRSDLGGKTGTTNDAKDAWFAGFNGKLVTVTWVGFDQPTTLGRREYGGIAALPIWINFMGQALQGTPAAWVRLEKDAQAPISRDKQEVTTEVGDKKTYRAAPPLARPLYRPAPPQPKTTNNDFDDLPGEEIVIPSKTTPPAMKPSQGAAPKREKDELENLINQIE
experiment notes: Bocillin-FL competition binding via gel filtration, A. baumannii PBP1a
condition description: competition binding assay using Bocillin-FL via gel filtration; read-out: A. baumannii PBP1a Potency

Use the examples below as a reference point.
compound | assay system | EC50
O=C(O)c1c(F)ccc2c1OB(O)[C@@H](NC(=O)[C@H](NC(=O)N1CCN(C3CCN(C(=O)c4cccc(O)c4)CC3)C1=O)c1cc(F)c(O)c(O)c1Cl)C2 (single isomer, unassigned) | A. baumannii PBP1a (Acinetobacter baumannii, UniProt A0ABX6CK30) | < 10 µM
O=C(NCCCN1CCN(C(=O)NC(C(=O)N[C@H]2Cc3ccc(F)c(C(=O)O)c3OB2O)c2cc(F)c(O)c(O)c2Cl)C(=O)C1=O)c1c(F)cncc1Cl (stereo partly shown) | A. baumannii PBP1a (Acinetobacter baumannii, UniProt A0ABX6CK30) | 10 to 50 µM
O=C(O)c1c(F)ccc2c1OB(O)[C@@H](NC(=O)C(NC(=O)N1CCN(S(=O)(=O)c3ccc(O)c(O)c3Cl)C1=O)c1ccc(P(=O)(O)O)cc1)C2 (stereo partly shown) | A. baumannii PBP1a (Acinetobacter baumannii, UniProt A0ABX6CK30) | < 10 µM

Can you give me EC50 for all of these, one by one?
1. O=C(NCCCS(=O)(=O)N1CCN(C(=O)NC(C(=O)N[C@H]2Cc3ccc(F)c(C(=O)O)c3OB2O)c2cc(F)c(O)c(O)c2Cl)C1=O)Nc1cccc(O)c1 (stereo partly shown)
2. O=C(O)c1c(F)ccc2c1OB(O)[C@@H](NC(=O)[C@H](NC(=O)N1CCN(C3CCN(C(=O)Nc4cc(O)cc(O)c4)CC3)C1=O)c1cc(F)c(O)c(O)c1Cl)C2
3. O=C(O)c1c(F)ccc2c1OB(O)[C@@H](NC(=O)[C@H](NC(=O)N1CCN(C3CCN(C(=O)Nc4cc(F)c(F)c(O)c4F)CC3)C(=O)C1=O)c1cc(F)c(O)c(O)c1Cl)C2
4. O=C(NCCCN1CCN(C(=O)N[C@@H](C(=O)N[C@H]2Cc3ccc(F)c(C(=O)O)c3OB2O)c2cc(F)c(O)c(O)c2Cl)C(=O)C1=O)c1c(F)cc(O)cc1F (racemic)
5. O=C(O)c1c(F)ccc2c1OB(O)[C@@H](NC(=O)C(NC(=O)N1CCN(C3CCN(C(=O)Nc4ccc(F)c(O)c4F)CC3)C(=O)C1=O)c1cc(F)c(O)c(O)c1Cl)C2 (stereo partly shown)

["< 10 µM", "< 10 µM", "< 10 µM", "10 to 50 µM", "< 10 µM"]

Can you give me EC50 for all of these, one by one?
1. CN(CCN1CCN(C(=O)NC(C(=O)N[C@H]2Cc3ccc(F)c(C(=O)O)c3OB2O)c2cc(F)c(O)c(O)c2Cl)C(=O)C1=O)S(=O)(=O)c1ccc(C(N)=O)cc1 (stereo partly shown)
2. O=C(NCCN1CCN(C(=O)NC(C(=O)N[C@H]2Cc3ccc(F)c(C(=O)O)c3OB2O)c2cc(F)c(O)c(O)c2Cl)C1=O)c1ccc(O)cc1 (stereo partly shown)

< 10 µM
10 to 50 µM

###

assay system: PBP3 from Acinetobacter baumannii (ATCC 19606) (Acinetobacter baumannii)
Sequence (A0ABX6CK25 64-610): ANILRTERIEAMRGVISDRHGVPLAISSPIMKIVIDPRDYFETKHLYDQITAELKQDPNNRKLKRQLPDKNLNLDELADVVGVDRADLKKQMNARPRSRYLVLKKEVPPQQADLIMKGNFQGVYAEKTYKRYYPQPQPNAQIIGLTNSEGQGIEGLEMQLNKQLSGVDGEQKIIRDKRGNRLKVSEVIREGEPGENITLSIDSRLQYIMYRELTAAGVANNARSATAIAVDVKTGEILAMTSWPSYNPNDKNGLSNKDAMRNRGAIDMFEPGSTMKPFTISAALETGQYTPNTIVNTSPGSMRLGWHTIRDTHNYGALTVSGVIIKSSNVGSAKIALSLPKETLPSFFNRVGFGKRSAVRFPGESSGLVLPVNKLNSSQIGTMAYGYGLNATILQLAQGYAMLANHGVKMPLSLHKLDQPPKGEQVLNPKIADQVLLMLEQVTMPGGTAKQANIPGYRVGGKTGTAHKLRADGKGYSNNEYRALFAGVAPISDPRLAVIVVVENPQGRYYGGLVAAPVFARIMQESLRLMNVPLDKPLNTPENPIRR
experiment notes: Bocillin-FL fluorescence polarization competition binding, A. baumannii PBP3
condition description: fluorescence polarization competition binding assay using Bocillin-FL; read-out: A. baumannii PBP3 Potency
outcome measure: IC50

Use the examples below as a reference point.
molecule | IC50
O=C(NCCCN1CCN(C(=O)N[C@@H](C(=O)N[C@H]2Cc3ccc(F)c(C(=O)O)c3OB2O)c2cc(F)c(O)c(O)c2Cl)C(=O)C1=O)c1c(F)cc(O)cc1F (racemic) | < 10 µM
O=C(O)c1c(F)ccc2c1OB(O)[C@@H](NC(=O)C(NC(=O)N1CCN(C3CCN(C(=O)c4cccc(O)c4)CC3)C(=O)C1=O)c1cc(F)c(O)c(O)c1Cl)C2 (stereo partly drawn) | < 10 µM

Param readout= IC50; system= PBP3 from Acinetobacter baumannii (ATCC 19606) (Acinetobacter baumannii); entry= O=C(NCCS(=O)(=O)N1CCN(C(=O)N[C@@H](C(=O)N[C@H]2Cc3ccc(F)c(C(=O)O)c3OB2O)c2cc(F)c(O)c(O)c2Cl)C1=O)Nc1ccncc1 ; returns value.
< 10 µM

###

assay system: A. baumannii PBP1a (Acinetobacter baumannii, UniProt A0ABX6CK30)
experiment notes: Bocillin-FL competition binding via gel filtration, A. baumannii PBP1a
condition description: competition binding assay using Bocillin-FL via gel filtration; read-out: A. baumannii PBP1a Potency
pEC50: −log10 of the molar value.
Assignment: determine reported pEC50 for the given compounds.

compound | meas value
O=C(O)c1c(F)ccc2c1OB(O)[C@@H](NC(=O)[C@H](NC(=O)N1CCN(C3CCN(C(=O)Nc4cc(O)cc(F)c4)CC3)C1=O)c1cc(F)c(O)c(O)c1Cl)C2 (single isomer, unassigned) | > 5.00

Please turn your attention to the following entry.
Reported pEC50, compound O=C(O)c1c(F)ccc2c1OB(O)[C@@H](NC(=O)[C@H](NC(=O)N1CCN(C3CCN(C(=O)Nc4ccc(O)c(O)c4Cl)CC3)C1=O)c1ccc(P(=O)(O)O)cc1)C2 (single isomer, unassigned) : ____
> 5.00
